Where do these numbers come from? They come from PubChem BioAssay (NCI).

Tested on: KM12 colon
Assay: NCI-60 one-dose screen, 48 h (100 = growth as untreated, 0 = no growth, -100 = all killed)
Details: 10 µM unless noted
Procedure: Growth inhibition of the KM12 human tumor cell line is measured as a screen for anti-cancer activity. Cells are grown in 96 well plates and exposed to the test compound for 48 hours. Compounds are tested at a single concentration, which is 10^-5 M for most compounds. The reported endpoint is percent growth (GI% or GIPRCNT), where numbers from 0 - 100% represent growth inhibition, and numbers from -100% - 0 represent cell death. For example, a value of 40 represents 60% growth inhibition. […]
Compounds without any hit were thinned out: in the full panel of roughly 83,000, 20% have a hit.
Here the recorded growth is given for each entry.

>  <MOLECULE>
CC(C)N=C(N)/N=C(\N)Nc1ccc2ccc3ccccc3c2c1

>  <MEASURE UNIT>
%

>  <growth>
-82.2

$$$$
>  <MOLECULE>
COC(=O)[C@]1(C)CCC[C@]2(C)c3ccc(C(C)C)cc3C(=O)[C@@H](Br)[C@@H]12

>  <MEASURE UNIT>
%

>  <growth>
104

$$$$
>  <MOLECULE>
Clc1ccc(-n2ncc3c(NCCCN4CCOCC4)ncnc32)cc1

>  <MEASURE UNIT>
%

>  <growth>
103

$$$$
>  <MOLECULE>
OC(Cc1cc(CC(O)(C(F)(F)F)C(F)(F)F)nc(CC(O)(C(F)(F)F)C(F)(F)F)c1)(C(F)(F)F)C(F)(F)F

>  <MEASURE UNIT>
%

>  <growth>
1.25

$$$$
>  <MOLECULE>
O=C1C=CC(O)=CC1=P(c1ccccc1)(c1ccccc1)c1ccccc1

>  <MEASURE UNIT>
%

>  <growth>
99.7

$$$$
>  <MOLECULE>
C/C(=N\NC(=S)N1CC2CCC(CC2)C1)c1ccccn1

>  <MEASURE UNIT>
%

>  <growth>
9.58

$$$$
>  <MOLECULE>
NC(=Nc1nc(-c2ccccn2)cc2ccccc12)c1ccccn1

>  <MEASURE UNIT>
%

>  <growth>
16

$$$$
>  <MOLECULE>
O=C(O)c1cccc2cccc(-c3c4ccc(=O)c(O)c-4oc4c(O)c(O)ccc34)c12

>  <MEASURE UNIT>
%

>  <growth>
96

$$$$
>  <MOLECULE>
O=C(c1ccccc1)C(Br)C(Br)c1ccccc1 (configuration not stated)

>  <MEASURE UNIT>
%

>  <growth>
55.1

$$$$
>  <MOLECULE>
O=C(Cc1ccccc1)C(F)(F)F

>  <MEASURE UNIT>
%

>  <growth>
103

$$$$
>  <MOLECULE>
N=C(N)Sc1cccc[n+]1[O-]

>  <MEASURE UNIT>
%

>  <growth>
55.1

$$$$
>  <MOLECULE>
Cc1ccccc1N=C(N)Nc1ccccc1C (tested in a mixture with another compound)

>  <MEASURE UNIT>
%

>  <growth>
64.6

$$$$
>  <MOLECULE>
CCN(CC)c1ccc(/C=C\C(=O)c2ccc(NC(C)=O)cc2)cc1

>  <MEASURE UNIT>
%

>  <growth>
48.1

$$$$
>  <MOLECULE>
Oc1ccc2ccccc2c1N=Nc1ccccn1

>  <MEASURE UNIT>
%

>  <growth>
34.4

$$$$
>  <MOLECULE>
Nc1cccc2cccc([N+](=O)[O-])c12

>  <MEASURE UNIT>
%

>  <growth>
113

$$$$
>  <MOLECULE>
CC(C)(C)c1ccc(O)c(-c2ccccc2)c1

>  <MEASURE UNIT>
%

>  <growth>
104

$$$$
>  <MOLECULE>
CC(C)=CCCC(C)C1=C(O)C(=O)C(C)=CC1=O (configuration not stated)

>  <MEASURE UNIT>
%

>  <growth>
86.8

$$$$
>  <MOLECULE>
CCC(C)C(N)C(=O)NC(CC(N)=O)C(=O)NC(CC(C)C)C(=O)NC(CCCCN)C(=O)NC(C)C(=O)NC(CC(C)C)C(=O)NC(C)C(=O)NC(C)C(=O)NC(CC(C)C)C(=O)NC(C)C(=O)NC(CCCCN)C(=O)NC(CCCCN)C(=O)NC(C(=O)NC(CC(C)C)C(N)=O)C(C)CC (configuration not stated)

>  <MEASURE UNIT>
%

>  <growth>
90.2

$$$$
>  <MOLECULE>
COc1ccc2c(c1OC)OCC(CN(C)C)C2=O (configuration not stated)

>  <MEASURE UNIT>
%

>  <growth>
96.8

$$$$
>  <MOLECULE>
Cc1cc2cccnc2c2ncccc12

>  <MEASURE UNIT>
%

>  <growth>
28.5

$$$$
>  <MOLECULE>
N#Cc1c2ccccc2nc2ccccc12

>  <MEASURE UNIT>
%

>  <growth>
108

$$$$
>  <MOLECULE>
COc1ccc(NC(=O)/C(=C/N2C(=O)/C(=C/c3ccc(OC)c(OC)c3)NC2=S)C(C)=O)cc1

>  <MEASURE UNIT>
%

>  <growth>
95.1

$$$$
